# protocol text: qHTS assay to identify small molecule antagonists of the glucocorticoid receptor (GR) signaling pathway - cell viability counter screen (AID 720693); further: nearly all actives have a fitted effect of over 55% in size
# settings: GR-bla HeLa viability, CellTiter-Glo luminescence, 18 h, with 5 nM dexamethasone present; series mostly up to 58.5 µM
Records with an inconclusive call do not appear. Calls of active or inactive are those of the source. The call rests on the fitted dose curve; in most records, active means well fitted cell-killing curve with a large enough effect in the repeat runs; inconclusive means weak or mixed curves, or effect the other way; inactive means no such curve, though single readings can be large or run the other way.
Tick one outcome: active, inactive

See these solved cases before continuing.
# smiles text, label value
data = [
    ("N=C1N=C(N)c2ccccc21", "inactive"),
    ("CCCCCCCCCCCCCCCC[N+](C)(C)CCN(Cc1ccc(OC)cc1)c1ncccn1", "inactive"),
    ("CCCCCCCCCCCCCCCS(=O)(=O)Oc1ccccc1", "inactive"),
    ("CCCCN1CCCC[C@H]1C(=O)Nc1c(C)cccc1C", "inactive"),
    ("CCc1oc2ccccc2c1C(=O)c1cc(Br)c(O)c(Br)c1", "active"),
]

Asked: Assay result, entry NNc1nc(-c2ccc(N)cc2)cs1 — outcome?
Given back: inactive

Asked: Record lookup: outcome of this test for CS(=O)(=O)CCNCc1ccc(-c2ccc3ncnc(Nc4ccc(OCc5cccc(F)c5)c(Cl)c4)c3c2)o1 ?
Given back: inactive

Asked: # lookup: test call for COc1c(C)c2c(c(O)c1C/C=C(\C)CCC(=O)O)C(=O)OC2
Given back: inactive

Asked: Please let me know the test result on file for Cc1cc(N)c(S(=O)(=O)O)cc1Cl .
Given back: inactive

Asked: Answer briefly: the call reported for C[n+]1ccn(Cc2ccccc2)c1 in this assay.
Given back: inactive

Asked: What outcome does the record of this test show for CCN(Cc1cccnc1)C(=O)c1cccc(Cl)c1[C@]1(C)C(=O)N(Cc2ccc(OC)cc2OC)c2ccc(Cl)cc21 ?
Given back: inactive

Asked: What is the recorded call for this molecule in the test? O=C1Cc2cc(CCN3CCN(c4nsc5ccccc45)CC3)c(Cl)cc2N1
Given back: inactive

----------
# protocol text: A CellTox Green Cytotoxicity Assay to monitor cytotoxicity in HEK293 cells - 16 hour (AID 1224888); further: nearly all actives have a fitted effect of over 35% in size
# settings: CellTox Green fluorescence; series mostly up to 76.8 µM
# Source text: National Center for Advancing Translational Sciences [NCATS] NIH Chemical Genomics Center [NCGC] U.S. Environmental Protection Agency [EPA] National Institutes of Environmental Health Sciences [NIEHS] National Toxicology Program [NTP] Cell-based models are critical for drug discovery. […] Viable cells produce no appreciable increases in fluorescence. Therefore, the fluorescence signal produced by the binding interaction with dead cell DNA is proportional to cytotoxicity. […]
Results filed as inconclusive are left out. Activity calls are given as the source filed them. The call rests on the fitted dose curve; in most records, active means well fitted activation curve with a large enough effect in the repeat runs; inconclusive means weak or mixed curves; inactive means flat fitted curve, though single readings scatter.
Answer with one of the outcomes given here: active, inactive

# molecule, label value
measured = [
    ("OCCN(CCO)c1nc(N2CCCCC2)c2nc(N(CCO)CCO)nc(N3CCCCC3)c2n1", "active"),
]

Asked: What outcome does the record of this test show for CCCCCCCCOc1ccccc1C(=O)Nc1ccc(C(=O)OCC[N+](C)(CC)CC)cc1 ?
Given back: active

Asked: // return assay outcome for Nc1c(Cl)cc(Cl)cc1Cl
Given back: active

Asked: What outcome does the record of this test show for CC(C)CCCCCCCCCCCCCCC(=O)O ?
Given back: inactive

Asked: Query: recorded result category for N#CC1(c2ccc(F)cc2)CCC(=O)CC1 in this test
Given back: inactive

Asked: # fetch the recorded call for CCCCCCCCCCCCCCCS(=O)(=O)Oc1ccccc1 here
Given back: inactive

Asked: Would you mind telling me which call this test gave COc1ccc(-c2ccc3cc(C(=O)O)ccc3c2)cc1C12CC3CC(CC(C3)C1)C2 ?
Given back: inactive
